- Test system: H4
- PROTOCOL: Cytotoxicity against human H4 cells at 40 uM
- Type: cell-based
- STUDY CONDITIONS: h4, 40 µM

- COMPOUND: "N#Cc1cccc(COc2ccc(/C=C3\\C(=O)Nc4ccc(Cl)cc43)cc2)c1"
  Activity: "Non-toxic"
- COMPOUND: "O=C1Nc2ccc(Cl)cc2/C1=C/c1ccc(OCCN2CCOCC2)cc1"
  Activity: "Non-toxic"
- COMPOUND: "O=C1Nc2ccc(Cl)cc2/C1=C/c1ccc(OCCCc2nnn[nH]2)cc1"
  Activity: "Toxic"
- COMPOUND: "COc1ccc(/C=C2\\C(=O)Nc3ccc(Cl)cc32)cc1"
  Activity: "Non-toxic"
- COMPOUND: "N#Cc1ccc(COc2ccc(/C=C3\\C(=O)Nc4ccc(Cl)cc43)cc2)cc1"
  Activity: "Non-toxic"
- COMPOUND: "COc1cc(OCCN(C)C)ccc1/C=C1\\C(=O)Nc2ccc(Cl)cc21"
  Activity: "Non-toxic"
- COMPOUND: "O=C1Nc2ccc(Cl)cc2/C1=C/c1ccc(OCCCCl)cc1"
  Activity: "Toxic"
- COMPOUND: "CN(C)CCOc1ccc(/C=C2\\C(=O)Nc3ccc(Cl)cc32)cc1"
  Activity: "Non-toxic"
- COMPOUND: "O=C1Nc2ccc(Cl)cc2/C1=C/c1cc(Br)c(O)c(Br)c1"
  Activity: "Non-toxic"
- COMPOUND: "N#CCCCOc1ccc(/C=C2\\C(=O)Nc3ccc(Cl)cc32)cc1"
  Activity: "Toxic"
- COMPOUND: "CCCCOc1ccc(/C=C2\\C(=O)Nc3ccc(Cl)cc32)cc1"
  Activity: "Non-toxic"

----------
- TARGET ENTITY: Gamma-secretase
- PROTOCOL: Inhibition of gamma secretase in human H4 cells expressing APP695 assessed as inhibition of Abeta42 production after 20 to 24 hrs by liquid phase electrochemiluminescence assay
Below, each entry is listed alongside its reported IC50.

- COMPOUND: "COC(=O)c1ccc(COc2ccc(/C=C3\\C(=O)Nc4ccc(Cl)cc43)cc2)cc1"
  RESULT UNITS: "µM"
  SIGN QUALIFIER: "="
  IC50: 38.8
- COMPOUND: "N#Cc1cccc(COc2ccc(/C=C3\\C(=O)Nc4ccc(Cl)cc43)cc2)c1"
  RESULT UNITS: "µM"
  SIGN QUALIFIER: ">"
  IC50: 40
- COMPOUND: "Cc1cn(-c2ccc(Oc3ccc(/C=C4\\C(=O)Nc5ccc(Cl)cc54)cc3)cc2)cn1"
  RESULT UNITS: "µM"
  SIGN QUALIFIER: "="
  IC50: 5.4
- COMPOUND: "O=C1Nc2ccc(Cl)cc2/C1=C/c1ccc(O)cc1"
  RESULT UNITS: "µM"
  SIGN QUALIFIER: "="
  IC50: 47.6
- COMPOUND: "CN(C)CCOc1ccc(/C=C2\\C(=O)Nc3ccc(Cl)cc32)cc1"
  RESULT UNITS: "µM"
  SIGN QUALIFIER: "="
  IC50: 7.6
- COMPOUND: "N#CCCCOc1ccc(/C=C2\\C(=O)Nc3ccc(Cl)cc32)cc1"
  RESULT UNITS: "µM"
  SIGN QUALIFIER: ">"
  IC50: 40
- COMPOUND: "N#Cc1ccc(COc2ccc(/C=C3\\C(=O)Nc4ccc(Cl)cc43)cc2)cc1"
  RESULT UNITS: "µM"
  SIGN QUALIFIER: "="
  IC50: 27.3
- COMPOUND: "O=C1Nc2ccc(Cl)cc2/C1=C/c1ccc(OCCN2CCOCC2)cc1"
  RESULT UNITS: "µM"
  SIGN QUALIFIER: "="
  IC50: 11.3
- COMPOUND: "CCN(CC)CCOc1ccc(/C=C2\\C(=O)Nc3ccc(Cl)cc32)cc1"
  RESULT UNITS: "µM"
  SIGN QUALIFIER: "="
  IC50: 17.7
- COMPOUND: "COc1cc(/C=C2\\C(=O)Nc3ccc(Cl)cc32)ccc1S(C)(=O)=O"
  RESULT UNITS: "µM"
  SIGN QUALIFIER: "="
  IC50: 7.3
- COMPOUND: "COc1cc(/C=C2\\C(=O)Nc3ccc(Cl)cc32)ccc1OCCCC#N"
  RESULT UNITS: "µM"
  SIGN QUALIFIER: ">"
  IC50: 160
- COMPOUND: "O=C1Nc2ccc(Cl)cc2/C1=C/c1cc(Br)c(O)c(Br)c1"
  RESULT UNITS: "µM"
  SIGN QUALIFIER: "="
  IC50: 15

----------
- Tested on: H4
- PROTOCOL: Cytotoxicity against human H4 cells at 80 uM
- Format: cell-based
- STUDY CONDITIONS: h4, 80 µM
EXPERIMENTAL READOUT: Activity

- COMPOUND: "CN(C)c1ccc(/N=N/c2ccc(/C=C3\\C(=O)Nc4ccccc43)cc2)cc1"
  VALUE REPORTED: "Non-toxic"
- COMPOUND: "COc1cc(/C=C2\\C(=O)Nc3ccc(Cl)cc32)ccc1-n1cnc(C)c1"
  VALUE REPORTED: "Toxic"
- COMPOUND: "Cn1c2ccccc2c2cc(/C=C3\\C(=O)Nc4ccc(Cl)cc43)ccc21"
  VALUE REPORTED: "Non-toxic"
- COMPOUND: "Cn1c2ccccc2c2cc(/C=C3\\C(=O)Nc4ccccc43)ccc21"
  VALUE REPORTED: "Toxic"

----------
- TARGET ENTITY: Gamma-secretase
- PROTOCOL: Inhibition of gamma secretase in human H4 cells expressing APP695 assessed as inhibition of Abeta42 production after 20 to 24 hrs by liquid phase electrochemiluminescence assay
Collected IC50 values appear next to each entry.
EXPERIMENTAL READOUT: IC50 (µM)

- COMPOUND: "O=C1Nc2ccc(Cl)cc2/C1=C/c1ccc(OCCCCl)cc1"
  SIGN QUALIFIER: "="
  VALUE REPORTED: 4.7
- COMPOUND: "Cn1c2ccccc2c2cc(/C=C3\\C(=O)Nc4ccccc43)ccc21"
  SIGN QUALIFIER: "="
  VALUE REPORTED: 27.6
- COMPOUND: "COc1ccc(/C=C2\\C(=O)Nc3ccc(Cl)cc32)cc1"
  SIGN QUALIFIER: ">"
  VALUE REPORTED: 40
- COMPOUND: "COc1cc(OCCN(C)C)ccc1/C=C1\\C(=O)Nc2ccc(Cl)cc21"
  SIGN QUALIFIER: "="
  VALUE REPORTED: 10
- COMPOUND: "O=C1Nc2ccc(Cl)cc2/C1=C/c1ccc(OCCCc2nnn[nH]2)cc1"
  SIGN QUALIFIER: "="
  VALUE REPORTED: 17.7
- COMPOUND: "CCN(CC)CCOc1ccc(/C=C2\\C(=O)Nc3ccc(Cl)cc32)cc1OC"
  SIGN QUALIFIER: "="
  VALUE REPORTED: 11.5
- COMPOUND: "CN(C)c1ccc(/N=N/c2ccc(/C=C3\\C(=O)Nc4ccccc43)cc2)cc1"
  SIGN QUALIFIER: ">"
  VALUE REPORTED: 80
- COMPOUND: "COc1cc(/C=C2\\C(=O)Nc3ccc(Cl)cc32)ccc1-n1cnc(C)c1"
  SIGN QUALIFIER: "="
  VALUE REPORTED: 6.7
- COMPOUND: "COc1cc(/C=C2\\C(=O)Nc3ccc(Cl)cc32)ccc1OCCN(C)C"
  SIGN QUALIFIER: "="
  VALUE REPORTED: 11.5
- COMPOUND: "Cn1c2ccccc2c2cc(/C=C3\\C(=O)Nc4ccc(Cl)cc43)ccc21"
  SIGN QUALIFIER: "="
  VALUE REPORTED: 19.8
- COMPOUND: "CCCCOc1ccc(/C=C2\\C(=O)Nc3ccc(Cl)cc32)cc1"
  SIGN QUALIFIER: ">"
  VALUE REPORTED: 40

----------
- Test system: H4
- PROTOCOL: Cytotoxicity against human H4 cells at 40 uM
- Assay type: cell-based
- STUDY CONDITIONS: h4, 40 µM
EXPERIMENTAL READOUT: Activity

- COMPOUND: "COC(=O)c1ccc(COc2ccc(/C=C3\\C(=O)Nc4ccc(Cl)cc43)cc2)cc1"
  VALUE REPORTED: "Non-toxic"
- COMPOUND: "O=C1Nc2ccc(Cl)cc2/C1=C/c1ccc(O)cc1"
  VALUE REPORTED: "Non-toxic"
- COMPOUND: "CCN(CC)CCOc1ccc(/C=C2\\C(=O)Nc3ccc(Cl)cc32)cc1OC"
  VALUE REPORTED: "Toxic"
- COMPOUND: "COc1cc(/C=C2\\C(=O)Nc3ccc(Cl)cc32)ccc1OCCN(C)C"
  VALUE REPORTED: "Toxic"

Reference source: ChEMBL document CHEMBL2203085
